# Assay target: T1, Histidine-tagged human CD3e protein (human, UniProt P07766 23-126)
# T1 construct: also called hCD3e-His; not shown: His tag
# T1 sequence (P07766 23-126 limits assumed): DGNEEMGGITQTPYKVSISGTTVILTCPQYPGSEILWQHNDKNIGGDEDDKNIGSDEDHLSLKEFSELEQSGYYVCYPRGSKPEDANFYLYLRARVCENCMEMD
# Assay summary: SPR (Biacore), human CD3e
Quantity measured: koff (s⁻¹)
Report only the number, with the unit s⁻¹ understood.

binder="1B1-H3K3-IgG1-LALA (antibody, V domains shown, Humanized; human IgG1 with LALA mutations; also called H3K3 (humanized 1B1)) VH: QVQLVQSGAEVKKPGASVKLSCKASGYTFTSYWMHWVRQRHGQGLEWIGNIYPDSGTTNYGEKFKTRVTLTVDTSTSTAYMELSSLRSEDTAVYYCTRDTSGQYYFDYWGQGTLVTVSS VL: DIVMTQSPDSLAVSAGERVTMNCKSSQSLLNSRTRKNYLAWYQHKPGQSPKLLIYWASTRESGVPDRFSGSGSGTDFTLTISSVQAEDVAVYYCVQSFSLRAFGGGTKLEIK" quantity_measured=koff assay_value=0.000501
binder="1B1-H1K1-IgG1-LALA (antibody, V domains shown, Humanized; human IgG1 with LALA mutations; also called H1K1 (humanized 1B1)) VH: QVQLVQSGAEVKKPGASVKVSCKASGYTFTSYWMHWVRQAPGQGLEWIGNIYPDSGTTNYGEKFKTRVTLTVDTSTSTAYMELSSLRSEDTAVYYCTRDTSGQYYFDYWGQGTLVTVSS VL: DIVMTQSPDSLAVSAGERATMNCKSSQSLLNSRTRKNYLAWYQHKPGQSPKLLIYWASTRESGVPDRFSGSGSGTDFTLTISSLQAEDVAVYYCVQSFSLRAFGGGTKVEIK" quantity_measured=koff assay_value=0.000621
binder="1B1-H1K2-IgG1-LALA (antibody, V domains shown, Humanized; human IgG1 with LALA mutations; also called H1K2 (humanized 1B1)) VH: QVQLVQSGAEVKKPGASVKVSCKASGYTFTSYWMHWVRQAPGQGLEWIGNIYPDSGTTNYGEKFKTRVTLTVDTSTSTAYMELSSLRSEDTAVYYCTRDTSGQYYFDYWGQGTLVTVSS VL: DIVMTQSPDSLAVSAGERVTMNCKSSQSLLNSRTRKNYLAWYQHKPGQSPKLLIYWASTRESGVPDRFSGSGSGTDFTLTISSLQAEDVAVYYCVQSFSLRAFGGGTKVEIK" quantity_measured=koff assay_value=0.000669

Quick one: koff of 1B1-H4K2-IgG1-LALA (antibody, V domains shown, Humanized; human IgG1 with LALA mutations; also called H4K2 (humanized 1B1)) VH: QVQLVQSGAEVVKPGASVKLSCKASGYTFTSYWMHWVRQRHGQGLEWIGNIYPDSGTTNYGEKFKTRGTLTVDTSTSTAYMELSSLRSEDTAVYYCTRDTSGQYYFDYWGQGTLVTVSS VL: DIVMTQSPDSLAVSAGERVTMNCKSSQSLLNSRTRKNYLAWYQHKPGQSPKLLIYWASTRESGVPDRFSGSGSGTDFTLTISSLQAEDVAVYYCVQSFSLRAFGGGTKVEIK ?
0.000614

Try 1B1-H1K3-IgG1-LALA (antibody, V domains shown, Humanized; human IgG1 with LALA mutations; also called H1K3 (humanized 1B1)) VH: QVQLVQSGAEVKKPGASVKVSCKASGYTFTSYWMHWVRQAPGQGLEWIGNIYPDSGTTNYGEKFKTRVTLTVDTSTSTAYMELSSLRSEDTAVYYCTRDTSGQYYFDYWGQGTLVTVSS VL: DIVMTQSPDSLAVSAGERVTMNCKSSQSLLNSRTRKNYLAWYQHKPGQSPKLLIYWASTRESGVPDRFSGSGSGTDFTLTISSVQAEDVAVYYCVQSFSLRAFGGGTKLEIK next.
0.00051
